System: SUDIPGVI (diffuse intrinsic pontine glioma line)
measurement-protocol: growth inhibition (% activity, log2 RLU normalised to DMSO / staurosporine); higher = more growth inhibition
experimental-context: 33 µM
Below, each entry is listed with its recorded growth inhibition.

{"columns": ["molecule", "system", "growth inhibition / %"],
 "data": [
  ["Clc1ccc(C(c2ccccc2Cl)C(Cl)Cl)cc1 (stereo unspecified)", "SUDIPGVI", -1.05],
  ["C=C[C@]1(C)C[C@@H](OC(=O)CSC(C)(C)CNC(=O)[C@H](N)C(C)C)[C@]2(C)[C@H](C)CC[C@]3(CCC(=O)[C@H]32)[C@@H](C)[C@@H]1O", "SUDIPGVI", 1.61],
  ["CC(C)OC(=O)C(C(=O)OC(C)C)=C1SC=CS1", "SUDIPGVI", -3.26],
  ["C#CCN[C@@H]1CCc2ccccc21", "SUDIPGVI", 1.93],
  ["CCN(CC)CCOCCOC(=O)C(CC)(CC)c1ccccc1", "SUDIPGVI", 4.8],
  ["O=C(c1ccccc1)c1ccc2n1CCC2C(=O)O (stereo unspecified)", "SUDIPGVI", 0.251],
  ["NC(CO)C(=O)NNCc1ccc(O)c(O)c1O (stereo unspecified)", "SUDIPGVI", 0.203],
  ["Nc1nc(CC(=O)Nc2ccc(CCNC[C@H](O)c3ccccc3)cc2)cs1", "SUDIPGVI", 0.0605],
  ["CC(C)(OCc1nn(Cc2ccccc2)c2ccccc12)C(=O)O", "SUDIPGVI", -2.56],
  ["CCC(=O)O[C@]1(C(=O)CCl)[C@@H](C)C[C@H]2[C@@H]3C[C@H](F)C4=CC(=O)C=C[C@]4(C)[C@@]3(F)[C@@H](O)C[C@@]21C", "SUDIPGVI", 3.9],
  ["CNC(=O)c1ccccc1Sc1ccc2c(/C=C/c3ccccn3)n[nH]c2c1", "SUDIPGVI", 0.631]
]}

# credit: the supplement of paper PMC8253809
